Origin of values: the supplement of paper PMC10567573

B1: SOAT1 (parent)
chain: GVLILFLTFFAFLHCWLNAFAEML

variants of: B1; experiment: protein stability index of a GFP-peptide fusion (GPS, HEK-293T) (PSI 1-6); higher = more stable; conditions: c terminus: a fixed tail appended;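 further: lentivirally expressed fusions sorted by FACS into six bins by GFP to DsRed ratio, PSI derived from sequencing read proportions per bin multiplied by bin number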
test_readout: protein stability index

>  <construct_sequence>
GVLILFLTFFAFLTCWLNAFAEML [H14T]

>  <numeric_readout>
2.06

$$$$
>  <construct_sequence>
GVLILFLTFSAFLHCWLNAFAEML [F10S]

>  <numeric_readout>
2.2

$$$$
>  <construct_sequence>
GVLILFLTFFAFPHCWLNAFAEML [L13P]

>  <numeric_readout>
2.6

$$$$
>  <construct_sequence>
GVLILFLTFFAFLHCWLNAFDEML [A21D]

>  <numeric_readout>
2.14

$$$$
>  <construct_sequence>
GVLILGLTFFAFLHCWLNAFAEML [F6G]

>  <numeric_readout>
1.72

$$$$
>  <construct_sequence>
GVLILFLTFFAFLHCWLNAFAEMQ [L24Q]

>  <numeric_readout>
3.14

$$$$
>  <construct_sequence>
GVLILPLTFFAFLHCWLNAFAEML [F6P]

>  <numeric_readout>
2.63

$$$$
>  <construct_sequence>
GVTILFLTFFAFLHCWLNAFAEML [L3T]

>  <numeric_readout>
3.86

$$$$
>  <construct_sequence>
GVLILFLWFFAFLHCWLNAFAEML [T8W]

>  <numeric_readout>
1.47

$$$$
>  <construct_sequence>
GVLILFETFFAFLHCWLNAFAEML [L7E]

>  <numeric_readout>
3.09

$$$$
>  <construct_sequence>
GVLILFLTFFAFLHCWLHAFAEML [N18H]

>  <numeric_readout>
2.92

$$$$
